- Test system: PfAP2-LT AP2 domain (GST-tagged)
- assayExplanation: gcPBM binding intensity (ln(normalized median fluorescence intensity)); higher = stronger DNA binding
Whole data set: some 25,000 sequences, median “ln(normalized median fluorescence intensity)” near 8.9, cut for the highest 2% near 10. The sample holds the highest values, similar sequences and a random draw of the others, so the mix is not that of the screen.
reportedEndpoint: gcPBM binding intensity (ln)
Please reply with the number alone, leaving off any unit.

gcPBM binding intensity (ln) recorded for this sequence, AAAAAAAAAAGACACACACACACACGGAGATATATA [CACACA_site6216] , is 10.4

gcPBM binding intensity (ln) recorded for this sequence, AAAAAAAAAAAAAATATATATATATATATATATATA [CACACA_negctrl_site540] , is 10.1

gcPBM binding intensity (ln) recorded for this sequence, TTTATTCTTGAGTATTGTACATATGTGTTTGTATAT [XGTACX_site5706] , is 8.93

gcPBM binding intensity (ln) recorded for this sequence, ATTTTTTTTATTTTTTATATAATTTTTTTATATTAT [CACACA_negctrl_site1521] , is 8.69

gcPBM binding intensity (ln) recorded for this sequence, CACACTAAAAGACACACACACACACGCATATAAATA [CACACA_site7874] , is 10.3

gcPBM binding intensity (ln) recorded for this sequence, GTATATATATACCATTGTACTTTCGTAAAAATATTT [XGTACX_site4846] , is 8.8

gcPBM binding intensity (ln) recorded for this sequence, GTAATTATTAATAAAACATGCGTATAAAATTTTCTC [TGCATGCA_site50] , is 8.62

gcPBM binding intensity (ln) recorded for this sequence, AAAAAAAAAAAAAACACACACACACCCAAATATATA [CACACA_site1169] , is 10.2

gcPBM binding intensity (ln) recorded for this sequence, AAAAAAAAAAAAAAAAAAAAAAAAAAATATATATAT [CACACA_negctrl_site271] , is 8.74

gcPBM binding intensity (ln) recorded for this sequence, TATAAAATAAATAACAAAAAAAATAAAATAAAAATA [TGCATGCA_negctrl_site297] , is 8.6

gcPBM binding intensity (ln) recorded for this sequence, ACACATACATATACATACACATTGTTTTCATGCATC [XGTACX_negctrl_site126] , is 9.2

gcPBM binding intensity (ln) recorded for this sequence, TACACGCAGAAACACACACACACACCCATATATATA [CACACA_site637] , is 10.1

gcPBM binding intensity (ln) recorded for this sequence, TATATATATATATATACATGCATCATTGTTCACCTT [TGCATGCA_site177] , is 10.2

gcPBM binding intensity (ln) recorded for this sequence, ATAGTATACAGACACACACACACACGGATATAAATA [CACACA_site6914] , is 10.1

gcPBM binding intensity (ln) recorded for this sequence, AGAAAAGGACATATATGTACTTATCAATATAGAAAC [XGTACX_site1042] , is 9.04

gcPBM binding intensity (ln) recorded for this sequence, AAAAAAAAAAAACACACACACACAAATATATAAAAA [CACACA_site1171] , is 9.77

gcPBM binding intensity (ln) recorded for this sequence, AGGAAATGTTTATATACATGCATAATTAAATATAAT [TGCATGCA_site672] , is 8.74

gcPBM binding intensity (ln) recorded for this sequence, ATGCAATTATATAGTAGTACAAATTTATAAATATAC [XGTACX_site4869] , is 8.94

gcPBM binding intensity (ln) recorded for this sequence, AAAAAAAAAAGACACACACACAAAAAAAGATATATA [CACACA_site6645] , is 9.9

gcPBM binding intensity (ln) recorded for this sequence, AAATAAATAAAAAACACACACAAATAAATAAATATA [CACACA_site2249] , is 9.46

gcPBM binding intensity (ln) recorded for this sequence, ATATAATAAAATGACACACGCATATATATATATATA [CACACA_site2789] , is 9.96

gcPBM binding intensity (ln) recorded for this sequence, ATATGGAATAATACGCGTACACACATATATATATTA [XGTACX_site307] , is 9.34

gcPBM binding intensity (ln) recorded for this sequence, TTATTTATAATATATACACACTAACATTATTTATCC [CACACA_site4835] , is 8.8

gcPBM binding intensity (ln) recorded for this sequence, TTTTCCCTCTTATTCACACAAAAAAAATAAAATAAA [CACACA_site4656] , is 8.2

gcPBM binding intensity (ln) recorded for this sequence, CGCGCACCCAGACACACACACACACCCATATATATA [CACACA_site2203] , is 9.96

gcPBM binding intensity (ln) recorded for this sequence, TATTTTTTTAATAACTGTACTTTTTTGTCAAATGGA [XGTACX_site4179] , is 8.32

gcPBM binding intensity (ln) recorded for this sequence, AAAAAAAAAAAACACACACACACACCCAAATATATA [CACACA_site150] , is 10.2

gcPBM binding intensity (ln) recorded for this sequence, TAAAAAAATTCATGCACACGAAATAAAAAGCACCTT [CACACA_site4667] , is 9.21

gcPBM binding intensity (ln) recorded for this sequence, TCATCATATTATATATGTACATATATAATAATTTAT [XGTACX_site1625] , is 8.62

gcPBM binding intensity (ln) recorded for this sequence, TTTTATTTTTAAGGATGTACTCAATTGTTTATATAC [XGTACX_site3965] , is 8.85

gcPBM binding intensity (ln) recorded for this sequence, TACTCAAAAATTAATTAGCATAATATATATAAAAAT [GTGCAC_negctrl_site613] , is 8.49

gcPBM binding intensity (ln) recorded for this sequence, ATTCATTATTCACCTTGTACACAAATGATTATCGTA [XGTACX_site455] , is 8.93

gcPBM binding intensity (ln) recorded for this sequence, TAAAAAATATTATATACACACAGTATAAAAAAAAAT [CACACA_site4012] , is 8.95

gcPBM binding intensity (ln) recorded for this sequence, TAAATAAATTTATACACACACACACGGATATAAATA [CACACA_site6532] , is 9.82

gcPBM binding intensity (ln) recorded for this sequence, AAAAAAAAAAAAAAAAAAAAAAAAATATATATATAT [CACACA_negctrl_site436] , is 9.25

gcPBM binding intensity (ln) recorded for this sequence, AAAAAAAAAACATACACACACATATAGATTTATATG [CACACA_site6847] , is 9.31

gcPBM binding intensity (ln) recorded for this sequence, AAAAAAAAAAAAAAAAAAAAACACCCAAAAAAATAT [XGTACX_negctrl_site210] , is 8.86

gcPBM binding intensity (ln) recorded for this sequence, AAAAAAAAAAAAAAAAAAAAATATATATATATATAT [GTGCAC_negctrl_site426] , is 9.67

These entries and their values trace back to the supplement of paper PMC11417369.
